B1: EPB41L3 (parent)
chain: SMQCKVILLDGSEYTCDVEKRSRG

Variants of: B1
Experiment: protein stability index of a GFP-peptide fusion (GPS, HEK-293T) (PSI 1-6); higher = more stable;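 further: lentivirally expressed fusions sorted by FACS into six bins by GFP to DsRed ratio, PSI derived from sequencing read proportions per bin multiplied by bin number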
Conditions: c terminus: a fixed tail appended
Each entry below carries its reported protein stability index.
Answer as a number with no unit attached.

Q: Please report the measured protein stability index for E19D
A: 2.19

Q: Give the value of protein stability index reported for the following: C16D
A: 3.44

Q: Provide one value: measured protein stability index of Q3F
A: 3.2

Q: Hello, please tell me recorded protein stability index for this one: G24M
A: 2.51

Q: Note down protein stability index recorded for V18M
A: 2.62

Q: Please indicate protein stability index recorded for T15R
A: 2.45

Further cases:
Q: Give protein stability index for R23E
A: 2.63

Q: Dear colleague, please send me the reported protein stability index for V18L when you can.
A: 1.79

Q: Fill in protein stability index for record L8P
A: 4.33

Q: Supply recorded protein stability index for I7T here.
A: 3.64

Q: Given G24Q , respond with its protein stability index.
A: 2.17

Q: Could you please provide reported protein stability index for D10T ? Thanks!
A: 2.75

Q: For L8D , write its protein stability index.
A: 4.41

Q: Specify reported protein stability index for the variant shown: L8C
A: 3.13

Q: Tell me its protein stability index given V18N as the entry.
A: 3.24

Q: State its protein stability index: R21D
A: 3.49

Q: Provide measured protein stability index value, entry: V6Q
A: 2.97

Q: Kindly indicate its recorded protein stability index. Item: G24T
A: 3.25

Q: # return recorded protein stability index for entry V6C
A: 2.07
